# System: normotensive rats
# assay-remarks: Blood pressure and heart rate in the conscious normotensive rat (NR)
# Type: in vivo
# condition-parameters: 5 mg/kg os, 120'
# Change in heart rate after treatment, 120' annotations

NNc1nncc2ccccc12 [Hydralazine, hydralazine, reference compound] :: +21 b/min
CN1C[C@H](CC(C#N)C(=O)N2CCCC2)C[C@@H]2c3cccc4[nH]cc(c34)C[C@H]21 (stereo partly drawn) :: -40 b/min
CCNC(=O)C(C#N)C[C@@H]1C[C@@H]2c3cccc4[nH]cc(c34)C[C@H]2N(C)C1 (stereo partly drawn) :: -30 b/min
CN1C[C@H](CC(C#N)C(N)=O)C[C@@H]2c3cccc4[nH]c(Br)c(c34)C[C@H]21 (stereo partly drawn) :: +10 b/min
CN1C[C@H](CC(C#N)C(=O)NCc2ccccc2)C[C@@H]2c3cccc4[nH]cc(c34)C[C@H]21 (stereo partly drawn) :: -20 b/min

API: the following record is the query input.
Input: // Change in heart rate after treatment, 120' lookup, key: CN1C[C@H](CC(C#N)C(N)=O)C[C@@H]2c3cccc4[nH]cc(c34)C[C@H]21 (stereo partly drawn)
Output: -42 b/min
